// data source = PubChem BioAssay (NCI)

Could you please report measured log10 TGI for the items listed next?
Test system: NCI-H226 lung
ASSAY METHOD TEXT: NCI tumour cell line growth inhibition, 48 h
Note: values are log10 of TGI expressed in µM.

# annotated cases, reported log10 TGI shown
COMPOUND	log10 TGI
Oc1c(CN2CCCC2)cc(CSCc2ccccc2)c2cccnc12	0.68
COc1cc2c(cc1O)CCN(C)[C@H]2Cc1ccc(Oc2c(O)c(OC)cc3c2C[C@H]2c4c(c(OC)c(OC)c(OC)c4-3)CCN2C)cc1	1.13
COc1cc(/C=C/c2ccc(OC)c(OC)c2OC)cc(OC)c1OC	1.60
CC1CN=C(c2ccc(-c3nc(-c4ccc(C5=NCC(C)N5)cc4)nc(N(C)C)n3)cc2)N1 (stereo not drawn)	0.73
C/C(=C(/c1ccc(O)cc1)c1ccc(Cl)cc1)c1ccccc1	0.90
COC(=O)/C=c1/c2ccccc2n2c1c1ccccc1[n+]2C	1.32

Record log10 TGI for all entries; do not skip any.
1. CC1(C)[C@@H](OC(N)=O)C=C[C@]2(CO)[C@H]3CC[C@]4(C)[C@@H](c5ccc(=O)oc5)[C@@H](Cl)C[C@]4(O)C3=CC[C@@H]12
2. CC[C@@]12C=CCN3CC[C@]4(c5cc(NC(=O)COc6cc(OCC(=O)Nc7cc8c(cc7OC)N(C)[C@H]7[C@@](O)(C(=O)OC)[C@H](OC(C)=O)[C@]9(CC)C=CCN%10CC[C@]87[C@@H]%109)cc7oc(-c8ccccc8)cc(=O)c67)c(OC)cc5N(C)[C@@H]4[C@](O)(C(=O)OC)[C@H]1OC(C)=O)[C@H]32
3. COC(=O)C(CC(=O)c1c[nH]c2ccccc12)c1c[nH]c2ccccc12 (stereo not drawn)
4. CC(C)(CN1CCCCC1)C(/C=C/c1ccccc1)=N\NC(=O)N/N=C(/C=C/c1ccccc1)C(C)(C)CN1CCCCC1

## Output
[-1.77, 1.26, 1.73, 0.72]

* * *

Test system: NCI-H226 lung
ASSAY METHOD TEXT: NCI tumour cell line growth inhibition, 48 h
Please go through the items and note down their TGI.
Give bare numbers, in µM.

COMPOUND	READOUT UNIT	TGI
COC1(OC)C=CC(=O)C=C1	µM	10.4

From here, focus on the item given below.
Recorded result, CCCCCCCCCCCCCCCCCCNC(=O)OCC(CNS(=O)(=O)CCC[n+]1cccc2ccccc21)COC (stereo not given) , TGI: 3.84

* * *

Test system: COLO 205 colon
ASSAY METHOD TEXT: NCI tumour cell line growth inhibition, 48 h
REPORTED ENDPOINT: TGI (µM)
One number for each entry, in µM.

MOLECULE	TGT	TGI [µM]
COc1cc2cc(C(=O)N3CC(CCl)c4c3cc(NC(=O)C(C)Nc3c([N+](=O)[O-])cc(C(=O)NCCN(C)C)cc3[N+](=O)[O-])c3ccccc43)[nH]c2c(OC)c1OC (stereo not given)	COLO 205 colon	0.192

Now for a further molecule.
So the reported TGI for CC(/C=C/NNC1=NC(c2ccccc2)C(c2ccccc2)=NN1)Sc1ccccc1N (stereo not given) , on COLO 205 colon, turned out to be 31

* * *

Test system: PC-3 prostate
ASSAY METHOD TEXT: NCI tumour cell line growth inhibition, 48 h
Please provide measured TGI for the entries that follow.

Reference set (3 entries):
COMPOUND	TGI
COC(=O)c1ccc2c(c1)C(=O)c1c-2n(CCCN)c(=O)c2cc(OC)c(OC)cc12	> 51.4 µM
C[PH+](c1nc2ccccc2nc1[PH+](C)C(C)(C)C)C(C)(C)C.C[PH+](c1nc2ccccc2nc1[PH+](C)C(C)(C)C)C(C)(C)C.[Au+].[Cl-] (centres undefined)	0.144 µM
CC(=Nc1cc(Cl)cc(Cl)c1)c1ccncc1	> 100 µM

Items follow; give TGI for each.
1. CNCCNc1nc2ccccc2c2c(=O)c3cc(F)ccc3sc12
2. NNC(=O)Cn1ccnn1
3. CC12CC=CCC1CCC1C2CCC2(C)C(c3ccc(=O)oc3)CCC12O (centres undefined)
4. COC(=O)c1ccc(CN2C(=O)C(Cl)=C(Nc3ccc(OC)c(Cl)c3)C2=O)cc1
5. O=c1nc2ccc3sc4ccccc4c(=O)c3n2c(=O)[nH]1
6. CCOC(=O)c1c(N)sc2c1C(C(=O)OCC)CCC2 (centres undefined)
7. COc1cc2oc(=O)cc(C)c2cc1OC
8. CC(=O)c1cccc(-c2cccc(-c3ccn(CCN4CCOCC4)n3)c2)c1

## Output
1. 3.3 µM
2. > 100 µM
3. 0.309 µM
4. > 50 µM
5. > 100 µM
6. > 100 µM
7. > 100 µM
8. > 20 µM

* * *

Tested on: OVCAR-3 ovarian
ASSAY METHOD TEXT: NCI tumour cell line growth inhibition, 48 h
Decision: TGI >= 20 µM yields yes, all other cases yield no.

Some entries whose results are on file:
COMPOUND	TGT	CATEGORY
O=C1C(Cl)=C(c2ccc([N+](=O)[O-])cc2)C(=O)c2c(O)cccc21	OVCAR-3 ovarian	no
COC(=O)C1Cc2c([nH]c3ccccc23)C(c2ccccc2O)N1Cc1ccccc1 (configuration not stated)	OVCAR-3 ovarian	yes
Nc1nc(N)nc(CC(=O)O)n1	OVCAR-3 ovarian	yes
COC(=O)[C@H]1[C@H]2C[C@@H]3c4[nH]c5cc(OC)ccc5c4CCN3C[C@H]2C[C@@H](OC(=O)/C=C/c2cc(OC)c(OC)c(OC)c2)[C@@H]1OC	OVCAR-3 ovarian	no
O=C1CCN2CCC(=O)c3c2c(cc2ccccc32)N1	OVCAR-3 ovarian	yes
COc1cc(/C=C2\CN(C(=O)CCN3CCC(=NO)CC3)C/C(=C\c3cc(OC)c(OC)c(OC)c3)C2=O)cc(OC)c1OC	OVCAR-3 ovarian	no

## Input Would you say Clc1nc2c(C#Cc3ccccc3)ncnc2n1C1CCCCO1 (configuration not stated) shows TGI at minimum 20 µM?
## Output yes

## Input Hi, just wondering whether COc1cc2oc(=O)cc(C)c2c(OC)c1OC(C)=O shows TGI of 20 µM or higher.
## Output yes

## Input Check this compound for TGI at or above 20 µM: COc1ccc(/C=C\c2cc(OC)c(OC)c(OC)c2)c(NS(=O)(=O)c2ccc(Cl)cc2)c1O
## Output no

## Input Hi, just wondering whether CC(C#N)N(CCc1ccccc1)C(=O)c1ccccc1 (configuration not stated) shows TGI of 20 µM or higher.
## Output yes

## Input Assess whether reported TGI for CCN(CC)CCOc1c(OC)c(Br)cc2c(C)c(C(=O)OC)oc12 sits at 20 µM or higher.
## Output no

## Input Reported TGI at or above 20 µM? CC(=O)Nc1ccc(/C=C2/NC(=S)N(/C=C3\C(=O)Oc4ccccc4C3=O)C2=O)cc1
## Output yes

## Input Textbook exercise: given the entry COc1cc(S(=O)(=O)Nc2ccc(-c3csc(/N=C\c4ccccc4)n3)cc2)ccc1Cl , state whether its TGI is greater than or equal to 20 µM.
## Output yes

## Input Exam item: decide whether the reported TGI for COc1cc2c(c(OC)c1)C(=O)O[C@H](C)CCCC/C=C/C2 is at least 20 µM.
## Output yes

* * *

Provide the recorded TGI for the entries that follow.
Test system: NCI-H522 lung
ASSAY METHOD TEXT: NCI tumour cell line growth inhibition, 48 h

MOLECULE	TGI
CC1(C)C=[N+]([O-])C(C)(C)N1O	> 10 µM

Dear reader, for each entry below, please note its TGI.
1. O=c1c(O)cccn1C1OC(CO)C(O)C1O (stereo not given)
2. CC(=O)NC(=O)NC1=NCCC(=O)N1CCc1c[nH]c2ccccc12
3. CN(C)CCCc1c2ccccc2nc2ccc(Cl)cc12
4. O=[N+]([O-])c1ccc2c(c1)n1c(N3CCCC3)[n+]3ccccc3c1c1c3cccc[n+]3c(N3CCCC3)n21
5. NC1c2c(Cl)sc(Cl)c2C(=O)C1O (stereo not given)
6. O=[N+]([O-])c1ccc2nc(/C=C(\O)c3ccc(Cl)cc3)c(/C=C(\O)c3ccc(Cl)cc3)nc2c1

## Output
> 100 µM
> 100 µM
29.4 µM
> 100 µM
41.6 µM
60.7 µM

* * *

Tested on: IGROV1 ovarian
ASSAY METHOD TEXT: NCI tumour cell line growth inhibition, 48 h; in the data active = GI50 below about 0.43 µM; inactive = the rest
Log the outcome using a class from active, inactive

COMPOUND	CATEGORY
COC(=O)c1ccc2c(c1)C(=O)c1c-2n(CCCN)c(=O)c2cc(OC)c(OC)cc12	inactive
Cc1cc2nc(-c3c(N)ncc(C#N)c3-c3ccc(Cl)cc3)[nH]c2cc1C	inactive
O=C(N/N=C/c1ccc(Cl)cc1)c1[nH]c2ccc(Cl)cc2c1-c1ccccc1	active
CCOC(=O)Nc1nc2cc(OCC)ccc2s1	inactive
COc1ccc([C@@H](O)c2cc(-c3ncnc4cc(N5CCOCC5)ccc34)c(F)cc2Cl)nn1	inactive
COC(=O)[C@H]1[C@H]2C[C@@H]3c4[nH]c5cc(OC)ccc5c4CCN3C[C@H]2C[C@@H](OC(=O)/C=C/c2cc(OC)c(OC)c(OC)c2)[C@@H]1OC	inactive

## Input What did the test return for CNCCNc1nc2ccccc2c2c(=O)c3cc(F)ccc3sc12 ?
## Output inactive

## Input Each compound tested received a call. Report the one for CCCCNC(=O)Oc1ccc(/C(=C(/CC)Cc2ccccc2)c2ccc(OCCN3CCCCCC3)cc2)cc1 .
## Output inactive

## Input Given COc1ccc(NC(=O)n2nc(/C=C\c3ccc(O)c(OC)c3)cc2/C=C\c2ccc(O)c(OC)c2)cc1 , state the outcome it received in this test.
## Output inactive

## Input I would be grateful if you could indicate the recorded call for C/C(=C(/c1ccc(O)cc1)c1ccc(Cl)cc1)c1ccccc1 .
## Output inactive

## Input Assay outcome for CNCCNc1nc2ccccc2c2c(=O)c3cc(OC)ccc3sc12 : what was it?
## Output inactive

## Input Recorded test call requested for CS(=O)(=O)[O-].CS(=O)(=O)[O-].NC1CCCCC1N.[Pt+4] (configuration not stated)
## Output inactive
